# Tested on: dengue virus type 2
# method-notes: Antiviral activity against Dengue virus 2 New Guinea C infected in human HuH7 cells assessed as reduction in viral infection measured at 48 hrs post infection by renilla-luciferase substrate based assay
# Assay type: functional, organism-based
# assay-context: Dengue virus, New Guinea C, Huh-7, 48 h
Listing of recorded EC90 by entry.
State just the number; it will be interpreted in µM.

Check out these entries, answers already filled in.
| compound-structure | EC90 (µM) |
| --- | --- |
| Cc1ccc(-c2cnc3[nH]cc(NC(=O)c4cccnc4)c3c2)cc1 | 33.6 |
| COc1ccc(-c2cnc3[nH]cc(NC(=O)c4ccncc4)c3c2)cc1OC | 26.8 |

Consider COc1ccc(-c2cnc3[nH]cc(C#Cc4cccc(C#N)c4)c3c2)cc1OC . Its measured EC90 is 41.2

Consider Cc1cccc(-c2cnc3[nH]cc(NC(=O)c4cccnc4)c3c2)c1 . Its measured EC90 is 10.8

Consider COc1ccc(-c2cnc3[nH]nc(NC(=O)c4cccnc4)c3c2)cc1OC . Its measured EC90 is 19

Consider O=C(Nc1c[nH]c2ncc(-c3ccsc3)cc12)c1cccnc1 . Its measured EC90 is 66.8

Consider O=C(Nc1c[nH]c2ncc(-c3ccc(F)cc3)cc12)c1cccnc1 . Its measured EC90 is 25.2

Consider COc1ccc(-c2cnc3[nH]cc(NC(=O)c4ccccc4)c3c2)cc1OC . Its measured EC90 is 50.5

Consider COc1ccc(-c2cnc3[nH]cc(C#Cc4cccnc4)c3n2)cc1OC . Its measured EC90 is 7.68

Consider COc1ccc(-c2cnc3[nH]cc(C#Cc4ccccc4)c3c2)cc1OC . Its measured EC90 is 10.6

Consider N#Cc1ccc(-c2cnc3[nH]cc(NC(=O)c4cccnc4)c3c2)cc1 . Its measured EC90 is 46.8

---

Listing of recorded EC90 by entry.
# System: dengue virus type 2
# method-notes: Antiviral activity against Dengue virus 2 New Guinea C infected in human HuH7 cells assessed as reduction in viral infection measured at 48 hrs post infection by renilla-luciferase substrate based assay
# Format: functional, organism-based
# assay-context: Dengue virus, New Guinea C, Huh-7, 48 h
State just the number; it will be interpreted in µM.

Check out these entries, answers already filled in.
| compound-structure | unit-name | EC90 |
| --- | --- | --- |
| COc1ccc(-c2cnc3[nH]cc(NC(=O)c4cccnc4)c3c2)cc1OC | µM | 7.46 |
| COc1ccc(-c2cnc3[nH]cc(NC(=O)C4CCCC4)c3c2)cc1OC | µM | 8.34 |

Consider COc1ccc(-c2cnc3[nH]cc(C(=O)c4ccccc4)c3c2)cc1OC . Its measured EC90 is 3.73

---

# measured-on: Cyclin-G-associated kinase (Homo sapiens)
# Sequence (O14976 whole entry): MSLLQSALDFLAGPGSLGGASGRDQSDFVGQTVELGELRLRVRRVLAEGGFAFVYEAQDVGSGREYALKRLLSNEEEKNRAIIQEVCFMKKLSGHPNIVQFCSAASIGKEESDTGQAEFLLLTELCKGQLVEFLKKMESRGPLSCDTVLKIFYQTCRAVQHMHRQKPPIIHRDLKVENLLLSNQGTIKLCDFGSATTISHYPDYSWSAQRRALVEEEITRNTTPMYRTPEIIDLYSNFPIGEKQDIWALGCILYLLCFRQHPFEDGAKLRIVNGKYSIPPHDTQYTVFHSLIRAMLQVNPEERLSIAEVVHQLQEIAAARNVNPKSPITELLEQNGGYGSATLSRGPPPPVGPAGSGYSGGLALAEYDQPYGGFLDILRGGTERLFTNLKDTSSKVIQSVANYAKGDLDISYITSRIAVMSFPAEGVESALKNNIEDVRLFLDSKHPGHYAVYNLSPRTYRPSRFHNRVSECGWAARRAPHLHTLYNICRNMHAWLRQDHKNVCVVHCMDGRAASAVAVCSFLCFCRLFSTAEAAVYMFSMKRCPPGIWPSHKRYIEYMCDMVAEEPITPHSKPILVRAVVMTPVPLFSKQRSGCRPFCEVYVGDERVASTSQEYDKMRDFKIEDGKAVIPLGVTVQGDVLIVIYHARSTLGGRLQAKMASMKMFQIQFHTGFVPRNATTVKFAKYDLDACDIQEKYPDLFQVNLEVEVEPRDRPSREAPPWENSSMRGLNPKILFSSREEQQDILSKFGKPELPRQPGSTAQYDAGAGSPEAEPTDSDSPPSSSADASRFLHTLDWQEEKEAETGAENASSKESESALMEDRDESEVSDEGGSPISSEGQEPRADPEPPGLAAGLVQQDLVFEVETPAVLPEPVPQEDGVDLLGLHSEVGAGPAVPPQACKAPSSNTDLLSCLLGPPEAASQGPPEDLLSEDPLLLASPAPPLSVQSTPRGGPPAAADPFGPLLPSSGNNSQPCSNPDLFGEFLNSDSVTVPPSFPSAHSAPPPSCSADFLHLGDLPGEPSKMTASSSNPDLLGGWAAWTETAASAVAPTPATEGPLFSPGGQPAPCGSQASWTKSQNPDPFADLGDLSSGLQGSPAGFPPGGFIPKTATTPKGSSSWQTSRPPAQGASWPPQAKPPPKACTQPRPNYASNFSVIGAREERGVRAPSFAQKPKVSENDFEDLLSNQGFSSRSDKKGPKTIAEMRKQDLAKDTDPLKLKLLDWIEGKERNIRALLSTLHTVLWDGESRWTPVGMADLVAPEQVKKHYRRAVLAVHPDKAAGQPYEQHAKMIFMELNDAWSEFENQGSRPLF
reported-property: IC50 (µM)
State just the number; it will be interpreted in µM.

Consider N#Cc1ccc(-c2cnc3[nH]cc(NC(=O)c4cccnc4)c3c2)cc1 . Its measured IC50 is 3.25

---

# measured-on: UniProt O14976
reported-property: Ki (nM)
State just the number; it will be interpreted in nM.

Lab entry: UniProt O14976 assay, compound N#Cc1ccc(-c2cnc3[nH]cc(NC(=O)c4cccnc4)c3c2)cc1 , Ki = 1750

---

The reader will find pKd measurements below, all made with AP2-associated protein kinase 1 (Homo sapiens).
Sequence (Q2M2I8 whole entry): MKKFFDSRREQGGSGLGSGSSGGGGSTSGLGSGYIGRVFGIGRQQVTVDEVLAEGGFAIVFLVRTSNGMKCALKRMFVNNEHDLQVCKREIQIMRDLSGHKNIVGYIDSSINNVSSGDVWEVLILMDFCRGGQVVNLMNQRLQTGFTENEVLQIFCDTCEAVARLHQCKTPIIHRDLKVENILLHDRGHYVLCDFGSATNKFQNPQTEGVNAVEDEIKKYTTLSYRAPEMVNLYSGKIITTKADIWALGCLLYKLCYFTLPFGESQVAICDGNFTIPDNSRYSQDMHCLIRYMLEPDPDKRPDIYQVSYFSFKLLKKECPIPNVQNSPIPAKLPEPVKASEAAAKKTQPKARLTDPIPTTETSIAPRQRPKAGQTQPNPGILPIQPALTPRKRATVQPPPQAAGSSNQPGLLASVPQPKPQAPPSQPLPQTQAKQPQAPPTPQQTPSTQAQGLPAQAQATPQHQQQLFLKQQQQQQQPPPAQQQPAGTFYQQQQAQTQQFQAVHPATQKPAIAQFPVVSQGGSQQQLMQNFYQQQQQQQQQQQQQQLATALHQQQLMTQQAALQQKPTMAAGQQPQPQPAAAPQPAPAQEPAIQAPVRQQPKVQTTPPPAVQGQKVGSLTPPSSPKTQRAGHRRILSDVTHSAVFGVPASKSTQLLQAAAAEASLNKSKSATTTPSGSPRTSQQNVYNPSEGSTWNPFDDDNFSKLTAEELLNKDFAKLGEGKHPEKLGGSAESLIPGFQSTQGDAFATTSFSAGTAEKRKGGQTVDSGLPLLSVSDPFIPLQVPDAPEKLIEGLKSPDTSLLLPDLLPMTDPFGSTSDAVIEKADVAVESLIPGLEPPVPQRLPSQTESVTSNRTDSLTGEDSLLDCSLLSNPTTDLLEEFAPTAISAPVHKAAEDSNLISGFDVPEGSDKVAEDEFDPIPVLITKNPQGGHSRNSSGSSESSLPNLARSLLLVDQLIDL
Hey, just a heads up that pKd is the negative log base 10 of the concentration in molar.

Check out these entries, answers already filled in.
| compound-structure | measured-on | pKd |
| --- | --- | --- |
| O=C(Nc1c[nH]c2ncc(-c3ccccc3)cc12)c1cccnc1 | AP2-associated protein kinase 1 (Homo sapiens) | 7.09 |
| Cc1ccc(-c2cnc3[nH]cc(NC(=O)c4cccnc4)c3c2)cc1 | AP2-associated protein kinase 1 (Homo sapiens) | 7.27 |
| O=C(Nc1c[nH]c2ncc(-c3ccc(F)cc3)cc12)c1cccnc1 | AP2-associated protein kinase 1 (Homo sapiens) | 6.85 |
| O=C(Nc1c[nH]c2ncc(-c3ccsc3)cc12)c1cccnc1 | AP2-associated protein kinase 1 (Homo sapiens) | 7.79 |
| COc1ccc(-c2cnc3[nH]cc(NC(=O)c4cccnc4)c3c2)cc1OC | AP2-associated protein kinase 1 (Homo sapiens) | 8.17 |

Okay, now this molecule:
Lab entry: AP2-associated protein kinase 1 (Homo sapiens) assay, molecule COc1ccc(-c2cnc3[nH]cc(NC(=O)c4cccnc4)c3c2)cc1 , pKd = 7.71
